Tested on: EKVX
Assay: NCI tumour cell line growth inhibition, 48 h
Calls of active or inactive are those of the source. Cut-off read from the data, not from the text of the source: active = GI50 up to about 1.1 µM and inactive = higher.
Reported GI50 values for a set of compounds
outcome measure: GI50

> print(dat)
                                    compound       measured.result
 1  COc1ccc(-c2c(N)n(-c3cccc(C(=O)O)c3)c(=O)c3cc([N+](=O)[O-])ccc23)cc1   > 100 µM (inactive)
 2         C/C(=N\N=C(/S)SCc1ccccc1)c1ccccn1    < 0.01 µM (active)
 3  O=C(C[n+]1ccccc1)N/N=C(\C(=O)NC1=C(Cl)C(=O)c2ccccc2C1=O)c1c(O)c2ccc(O)cc2oc1=O    12.9 µM (inactive)
 4  CCOC(=O)C1=C(C)N(NC(N)=O)C(C)(O)C12CCOC2=O (stereo unspecified)   > 100 µM (inactive)
 5                     O=C(O)CCNCCCNCCC(=O)O   > 100 µM (inactive)
 6  O=C(Nc1ccccc1C(=O)O)C(=Cc1ccccc1O)NC(=O)c1ccccc1   > 100 µM (inactive)
 7  CC(=O)O[C@H]1CC[C@@]2(C)C(=CC[C@@H]3C2CC[C@]2(C)Nc4c(cnn4-c4ccccc4)CC32)C1 (stereo partly specified)    44.6 µM (inactive)
 8  [N-]=[N+]=NC1(N=[N+]=[N-])C(=O)NN=C(c2ccccc2)C1=O (stereo unspecified)   > 100 µM (inactive)
 9                       COn1cc(CO)c2ccccc21  > 83.2 µM (inactive)
10  CC(C)(Cl)C(Br)CC/C(CBr)=C(/Cl)CCl.CC(C)(Cl)C(Br)CC/C(CBr)=C(\Cl)CCl (stereo unspecified)    6.17 µM (inactive)
11          CCOC(=O)c1c(Nc2ccccc2)sc2cccnc12    18.5 µM (inactive)
12  CC(C)C(N)C(=O)NC(CCC(=O)NCCCCC(N)C(=O)NCCCNc1ccc([N+](=O)[O-])c2[nH]c3ccccc3c(=O)c12)C(N)=O (stereo unspecified)   > 100 µM (inactive)
13  C/C=C1\C(=O)OC2CCN3CCC(COC(=O)C(C)(O)C(C)C1O)C23 (stereo unspecified)   > 100 µM (inactive)
14  O=C1c2ccccc2C2(O)Oc3cccc(O)c3C12O (stereo unspecified)   > 100 µM (inactive)
15  O=CNNC(=O)CSc1nc2ccc(I)cc2c(=O)n1Cc1ccccc1    23.9 µM (inactive)
16  O=C(NNc1ccc([N+](=O)[O-])cc1[N+](=O)[O-])/C(O)=C\C(=O)c1ccccc1    25.2 µM (inactive)
17  COc1ccc2c(c1)[n+]([O-])c(C(=O)C/C(=N\NC(=O)C[N+](C)(C)C)C(=O)Nc1cc(Cl)ccc1Cl)c(C)[n+]2[O-]    0.0891 µM (active)
18       Cn1c2c(c3c(=O)[nH]ncc31)Cc1ccccc1-2    22.7 µM (inactive)
19  N/C(=N\Nc1nc2cc([N+](=O)[O-])ccc2o1)c1ccccn1    0.0257 µM (active)
20      CN(C)Cc1cc(/N=N/c2c(Cl)cccc2Cl)ccc1O   > 100 µM (inactive)
21              CC1(c2cc3c(cc2Br)OCO3)SCCCS1    77.1 µM (inactive)
